Origin of the recorded values: ChEMBL document CHEMBL4270491

Test system: HT-1080
Assay: Cytotoxic activity in human HT1080 cells assessed as reduction in cell viability incubated for 3 days by MTT assay
Type: functional, cell-based
Study Conditions: HT-1080, 72 h
Measured Metric: pIC50
Answers are plain numbers, as −log10 of the molar value.

CN(C)c1ccc(/C=C2/SC(=O)N(Cc3nc4ccccc4c(=O)n3-c3ccccc3)C2=O)cc1; 5.05
O=C1NC(=O)/C(=C\c2ccc(OCc3nc4ccccc4c(=O)n3-c3ccc(Br)cc3)cc2)S1; 4.34
COc1cc(/C=C2/SC(=O)NC2=O)ccc1OCc1nc2ccccc2c(=O)n1-c1ccc(C(F)(F)F)cc1; 4.41
COc1cc(/C=C2/SC(=O)NC2=O)ccc1OCc1nc2ccccc2c(=O)n1-c1cccc(Br)c1; 4.38
COc1cc(/C=C2/SC(=O)NC2=O)ccc1OCc1nc2ccccc2c(=O)n1-c1ccccc1; 4.19
O=C1NC(=O)/C(=C\c2ccc(OCc3nc4ccccc4c(=O)n3-c3ccc(C(F)(F)F)cc3)cc2)S1; 5.05

For the next question, use this molecule.
Exam item: Return reported pIC50; argument: `COc1ccc(-n2c(CN3C(=O)S/C(=C/c4ccc(N(C)C)cc4)C3=O)nc3ccccc3c2=O)cc1OC`
Marked response: 4.06

* * *

Tested on: PC-3
Assay: Cytotoxic activity in human PC3 cells assessed as reduction in cell viability incubated for 3 days by MTT assay
Assay type: functional, cell-based
Study Conditions: PC-3, 72 h
What IC50 was measured for each of the following?
Answers are plain numbers, in µM.

Here are 3 compounds together with their reported answers.
O=C1NC(=O)/C(=C\c2ccc(OCc3nc4ccccc4c(=O)n3-c3ccc(Br)cc3)cc2)S1; 60.7
COc1cc(/C=C2/SC(=O)NC2=O)ccc1OCc1nc2ccccc2c(=O)n1-c1ccc(C(F)(F)F)cc1; 50.1
COc1cc(/C=C2/SC(=O)NC2=O)ccc1OCc1nc2ccccc2c(=O)n1-c1ccc(Br)cc1; 51.1

Consider the additional compound presented here.
Exam item: Look up IC50 for this compound: `COc1cc(/C=C2/SC(=O)NC2=O)ccc1OCc1nc2ccccc2c(=O)n1-c1cccc(Cl)c1`
Marked response: 62.1

* * *

Test system: HT-1080
Assay: Induction of apoptosis in human HT1080 cells assessed as induction of DNA fragmentation at 50 uM incubated for 48 hrs by flow cytometry
Type: functional, cell-based
Calls of active or inactive are those of the source. No cut-off for these calls is given here.
# output must be one of active, inactive

O=C1NC(=O)/C(=C\c2ccc(OCc3nc4ccccc4c(=O)n3-c3ccc(Br)cc3)cc2)S1; active

Exam item: Call for entry `O=C1NC(=O)/C(=C\c2ccc(OCc3nc4ccccc4c(=O)n3-c3cccc(Cl)c3)cc2)S1` :
Marked response: active

Exam item: What do you get for `COc1cc(/C=C2/SC(=O)NC2=O)ccc1OCc1nc2ccccc2c(=O)n1-c1cccc(Br)c1` ?
Marked response: active

Exam item: What about this compound? `CN(C)c1ccc(/C=C2/SC(=O)N(Cc3nc4ccccc4c(=O)n3-c3ccccc3)C2=O)cc1`
Marked response: active

Exam item: Now this one: `O=C1NC(=O)/C(=C\c2ccc(OCc3nc4ccccc4c(=O)n3-c3ccc(Cl)cc3)cc2)S1`
Marked response: active

Exam item: Proceed to `O=C1S/C(=C/c2ccc(Cl)cc2Cl)C(=O)N1Cc1nc2ccccc2c(=O)n1-c1ccccc1`
Marked response: inactive

Exam item: Same question for `O=C1NC(=O)/C(=C\c2ccc(OCc3nc4ccccc4c(=O)n3-c3ccccc3)cc2)S1` please.
Marked response: active

Exam item: What do you have for `O=C1NC(=O)/C(=C\c2ccc(OCc3nc4ccccc4c(=O)n3-c3ccc(C(F)(F)F)cc3)cc2)S1` ?
Marked response: active
